# Test system: NCI-H1355
# assay notes: relative viability (nuclei count vs DMSO), 5 days (fraction); higher = more cells survive
# condition parameters: first compound 0.08 µM
Field: class. Source value: relative viability. Ranges: lower bin (below 0.7), middle bin (0.7 to below 1), upper bin (1 or more)

As a guide, the following entries are already answered.
compound	group label
Oc1nc(-c2ccc(C(F)(F)F)cc2)nc2c1CSCC2 [XAV939] + Cc1nc(NC(=O)N2CCC[C@H]2C(N)=O)sc1-c1ccnc(C(C)(C)C(F)(F)F)c1 [Alpelisib] (partner 2 µM)	middle bin
C=C1C(=O)O[C@@H](CCCCCCCC)[C@@H]1C(=O)O [C-75] + NC(=O)Nc1cc(-c2cccc(F)c2)sc1C(=O)N[C@H]1CCCNC1 [AZD7762] (partner 0.2 µM)	middle bin
C=C1C(=O)O[C@@H](CCCCCCCC)[C@@H]1C(=O)O [C-75] + CS(=O)(=O)CCNCc1ccc(-c2ccc3ncnc(Nc4ccc(OCc5cccc(F)c5)c(Cl)c4)c3c2)o1 [Lapatinib] (partner 2 µM)	middle bin
C=C1C(=O)O[C@@H](CCCCCCCC)[C@@H]1C(=O)O [C-75] + O=C(CCCCCCC(=O)Nc1ccccc1)NO [Vorinostat] (partner 1 µM)	lower bin
C=C1C(=O)O[C@@H](CCCCCCCC)[C@@H]1C(=O)O [C-75] + COc1cccc2cc(-c3nc([C@H]4CC[C@H](C(=O)O)CC4)n4ncnc(N)c34)[nH]c12 [OSI-027] (partner 0.5 µM)	lower bin

Looking at Oc1nc(-c2ccc(C(F)(F)F)cc2)nc2c1CSCC2 [XAV939] + C[C@@H](Oc1cc(-c2cnn(C3CCNCC3)c2)cnc1N)c1c(Cl)ccc(F)c1Cl [Crizotinib] (partner 1 µM) , which class would you pick? upper bin

And what about the compound C=C1C(=O)O[C@@H](CCCCCCCC)[C@@H]1C(=O)O [C-75] + CC(C)C[C@H](NC(=O)[C@H](Cc1ccccc1)NC(=O)c1cnccn1)B(O)O [Bortezomib] (partner 0.002 µM) ? upper bin

And what about the compound Oc1nc(-c2ccc(C(F)(F)F)cc2)nc2c1CSCC2 [XAV939] + NC(=O)Nc1cc(-c2cccc(F)c2)sc1C(=O)N[C@H]1CCCNC1 [AZD7762] (partner 0.2 µM) ? middle bin
